Origin of measurements: paper PMC9712106

Biological target: PfRipr (residues 20 to 1086) (P. falciparum)
Experiment: BLI; PfRipr or PfPTRAMP at 20 μg/ml immobilised on Anti-Penta-His (His1K) biosensors, twofold dilution series of PTRAMP–CSS or PfCSS; 25 °C, PBS pH 7.4, 0.1% BSA, 0.02% Tween-20; 1:1 model

>  <SUBSTANCE>
PTRAMP–CSS heterodimer (disulfide-linked PfPTRAMP 42–309 and PfCSS 20–290) (complex)

>  <Kd, µM>
3.6

$$$$
